Test system: early life stage zebrafish (Danio rerio) embryos
Test: Developmental toxicity morphology screen, sealed rotating vial exposure
Type: in vivo
Conditions: Fig. 2; nominal concentration
Parameter: BMC50 MORT (mortality at 120 hpf) (µM)

Compound structure	Numeric value
Cc1cc2c(C)ccc(C)c2cc1C	29.4
CCc1ccc2ccccc2c1	44.6
Cc1cc(C)c2c(C)cccc2c1	24.2
Cc1ccc(C)c2ccccc12	28.3
CC(C)c1ccc2ccccc2c1	25.2
CCCCc1ccc2ccccc2c1	29.2
CC(C)(C)c1ccc2ccc(C(C)(C)C)cc2c1	41.3
Cc1ccc(C)c2c(C)cccc12	23.5
Cc1cccc2cccc(C)c12	48.7
CCc1ccc2cc(CC)ccc2c1	39.2
CCc1cccc2ccccc12	41.9
Cc1cc2cccc(C)c2cc1C	31.5
Cc1ccc2c(C)cccc2c1	43.4

* * *

Tested on: early life stage zebrafish (Danio rerio) embryos
Assay: Developmental toxicity morphology screen, sealed rotating vial exposure
Assay type: in vivo
Parameters: unit not given here
Settings: benchmark dose; morphology endpoint EDEM
Parameter: bmd, EDEM

Compound structure	Numeric value
Cc1cc2c(C)ccc(C)c2cc1C	22.5215
Cc1ccc2c(C)cccc2c1	45.9847
Cc1cc2cccc(C)c2cc1C	34.7005
Cc1cccc2c(C)cccc12	47.802

* * *

Tested on: early life stage zebrafish (Danio rerio) embryos
Assay: Developmental toxicity morphology screen, sealed rotating vial exposure
Format: in vivo
Settings: Fig. 2; nominal concentration
# reported BMC50 MO24 (mortality at 24 hpf); entries follow
Parameter: BMC50 MO24 (mortality at 24 hpf) (µM)

Compound structure	System name	Numeric value
CCCCc1ccc2ccccc2c1	early life stage zebrafish (Danio rerio) embryos	45.9
Cc1cc2c(C)ccc(C)c2cc1C	early life stage zebrafish (Danio rerio) embryos	35.4
Cc1cc2cccc(C)c2cc1C	early life stage zebrafish (Danio rerio) embryos	38.9
CC(C)c1ccc2ccccc2c1	early life stage zebrafish (Danio rerio) embryos	29.9

* * *

Overview of reported fold_change across a group of molecules:
Tested on: zebrafish larvae, 120 hpf
Experiment: Larval photomotor response (LPR) assay after vial exposure
Assay type: in vivo, Danio rerio
Conditions: LPR, period light, round 2, conc 16

Compound structure	fold_change
Cc1ccc(C)c2c(C)cccc12	-0.1141
Cc1cc2cccc(C)c2cc1C	-0.8625
Cc1cc(C)c2c(C)cccc2c1	0.3746
CC(C)c1ccc2ccccc2c1	-0.2493

* * *

The following compounds are listed with their measured fold_change values.
Tested on: zebrafish larvae, 120 hpf
Assay: Larval photomotor response (LPR) assay after vial exposure
Format: in vivo, Danio rerio
Settings: LPR, period dark, round 2, conc 37.5
Parameter: fold_change

Compound structure	Numeric value
Cc1cccc2c(C)cccc12	-0.6231
Cc1cccc2cccc(C)c12	-0.7493
CCc1ccc2ccccc2c1	-0.3116
CCc1cccc2ccccc12	-0.2326

* * *

Quick reference: bmdL, MORT of the listed items.
Tested on: early life stage zebrafish (Danio rerio) embryos
Assay: Developmental toxicity morphology screen, sealed rotating vial exposure
Format: in vivo
Parameters: unit not given here
Settings: endpoint MORT; lower limit of benchmark dose
Method: When embryos were 6 hpf they were bleached in groups of 1000 or less to limit bacterial growth in sealed vials. Embryos were placed in a strainer for transfer between solutions in 500 mL containers. […] After loading into 96-well plates, embryos were assessed for 24-hour mortality. […] At 24 hpf embryos were assessed for mortality (MO24). […] Details of all measured endpoints can be found at Developmental toxicity zebrafish phenotype atlas. […]

Compound structure	bmdL, MORT
CCc1ccc2ccccc2c1	42.8494
CC(C)(C)c1ccc2ccc(C(C)(C)C)cc2c1	34.7649
CC(C)c1ccc2ccccc2c1	24.3232
CCCCc1ccc2ccccc2c1	24.1073
